System: UACC-257
assay procedure: NCI tumour cell line growth inhibition, 48 h
The source made the active and inactive calls. Rule as the data show it: active = GI50 up to about 1.1 µM and inactive = higher.
endpoint name: GI50

compound: Cc1c(-c2ccccc2)n(C)c2cn[nH]c(=O)c12
GI50: 45.5 µM (inactive)

compound: CN(C)CCSc1nccc(-c2ccc(-c3ccnc(SCCN(C)C)n3)s2)n1
GI50: 16.7 µM (inactive)

compound: O=C(O)CCC(NC(=O)c1ccc(Nc2nc3cc(C(F)(F)F)ccc3nc2C(=O)O)cc1)C(=O)O (centres undefined)
GI50: > 100 µM (inactive)

compound: CN(C)Nc1cc(=O)[nH]c(=O)[nH]1
GI50: > 100 µM (inactive)

compound: Cc1c(Cl)cccc1NC(=O)/C=C/c1ccccc1
GI50: > 100 µM (inactive)

Exam item: Specify reported GI50 for the compound shown: `C=C(CS(=O)(=O)c1ccccc1)C(=O)OCC`
Marked response: 12.8 µM (inactive)

Exam item: Specify reported GI50 for the compound shown: COC(=O)[C@@H](C)[C@H]1CC[C@@](C)(CCC2=C(C)CC3C=C(C)CCC3C2(C)C)OO1 (some centres undefined)
Marked response: 2.99 µM (inactive)

Exam item: Specify reported GI50 for the compound shown: `Cc1c(C)c2cc3c(=O)ccoc3c(C)c2oc1=O`
Marked response: > 100 µM (inactive)

Exam item: Specify reported GI50 for the compound shown: `c1ccc(COc2cccc3cccnc23)cc1`
Marked response: > 100 µM (inactive)

Exam item: Specify reported GI50 for the compound shown: `CCOC(=O)/C(C#N)=C/c1ccnc2ccccc12`
Marked response: > 100 µM (inactive)

Exam item: Specify reported GI50 for the compound shown: Cc1nc2c(Br)cc(Br)cc2c(=O)n1-c1ccccc1NC1OC(CO)C(O)C(O)C1O (centres undefined)
Marked response: > 100 µM (inactive)

Exam item: Specify reported GI50 for the compound shown: `O=C(Nc1ccc(Br)c2ccccc12)c1ccc2ccccc2c1O`
Marked response: 1.95 µM (inactive)

Exam item: Specify reported GI50 for the compound shown: `Cc1cc(-c2ccccc2)cc2[n+]1CC=C2.[O-][Cl+3]([O-])([O-])[O-]`
Marked response: > 100 µM (inactive)

Exam item: Specify reported GI50 for the compound shown: `CN(C)Cc1cc(/N=N/c2ccc(Cl)c(Cl)c2)ccc1O`
Marked response: 16.8 µM (inactive)

Exam item: Specify reported GI50 for the compound shown: COc1ccc(NC(=O)CC(=O)N2N=C(N3CCCCC3)CC2c2ccccc2)cc1 (centres undefined)
Marked response: > 100 µM (inactive)

Exam item: Specify reported GI50 for the compound shown: `CCOC(=O)NC(=O)c1cn(CCSCCOC(=O)NCCCCCCNC(=O)OCCSCCn2cc(C(=O)NC(=O)OCC)c(=O)[nH]c2=O)c(=O)[nH]c1=O`
Marked response: > 100 µM (inactive)

Exam item: Specify reported GI50 for the compound shown: COc1ccc2c(c1)N=C1CSC(c3ccccc3Cl)N1C2 (centres undefined)
Marked response: 16.3 µM (inactive)

Exam item: Specify reported GI50 for the compound shown: `CC(C)(C)c1ccc(-c2nc3ccc(Cl)cc3c(=O)o2)cc1`
Marked response: 31.2 µM (inactive)

Exam item: Specify reported GI50 for the compound shown: `C=C(Br)C[N+]12CN3CN(CN(C3)C1)C2`
Marked response: > 100 µM (inactive)

====

Tested on: SW-620
assay procedure: NCI tumour cell line growth inhibition, 48 h
Activity calls are given as the source filed them. Cut-off read from the data, not from the text of the source: active = GI50 up to about 1.1 µM and inactive = higher.
Assign a class; possible classes are 1.0 (active), 0.0 (inactive)

compound: O=C1/C(=C/c2ccccc2Cl)COc2ccc(Br)cc21
class name: 0.0

compound: C[C@]12CC[C@H](OC(=O)Cc3ccc(N(CCCl)CCCl)cc3)CC1CC[C@@H]1C2CC[C@]2(C)NC(=O)CCC12 (some centres not stated)
class name: 0.0

compound: CC1=CC[C@@H]2[C@@H](CC[C@@]2(C)O)C(C)(C)[C@H]1CC[C@@H]1[C@@]2(C)CC[C@@H](O)C(C)(C)O[C@@H]2CC[C@]1(C)O
class name: 0.0

compound: COc1cc2c(c(C)c1O)[C@H]1COc3ccccc3[C@H]1O2
class name: 0.0

compound: O=[As]O
class name: 0.0

compound: COc1ccc2c(c1)N(C(C)=O)CN1C(=O)CCC21 (configuration not stated)
class name: 0.0

Exam item: How did this test come out for `N#Cc1c2c(c(Nc3ccc(Cl)cc3)n3c1nc1ccccc13)CCCC2` ?
Marked response: 0.0

Exam item: How did this test come out for `COc1ccc([C@@H]2CC(=O)NCCCCNCCCN2)cc1` ?
Marked response: 0.0

====

Test system: MDA-MB-231
assay procedure: NCI tumour cell line growth inhibition, 48 h
Calls of active or inactive are those of the source. Rule as the data show it: active = GI50 up to about 1.1 µM and inactive = higher.
endpoint name: GI50

Exam item: Specify reported GI50 for the compound shown: Cc1ccc(NC(c2ccccc2)P(=O)(c2ccccc2)c2ccccc2)cc1 (stereo unspecified)
Marked response: > 100 µM (inactive)

====

Test system: KM12
assay procedure: NCI tumour cell line growth inhibition, 48 h
Active and inactive are the calls of the source. Cut-off read from the data, not from the text of the source: active = GI50 up to about 1.1 µM and inactive = higher.
Examples of molecules with documented GI50 follow.

molecule: c1cncc(CNCc2cccnc2)c1
test value: > 100 µM (inactive)
//
molecule: CCOc1ccc(NC(=O)CCc2nnc(SC)o2)cc1
test value: > 100 µM (inactive)
//
molecule: CC(=O)N(C(C)=O)C1=C2c3ccccc3N(S(=O)(=O)c3ccccc3)C2n2c(=O)n(-c3ccccc3)c(=O)n2C1 (stereo unspecified)
test value: 34.7 µM (inactive)
//
molecule: O=C1OC(c2ccc(Cl)cc2)(c2ccc(Cl)cc2)c2c1ccc1ccccc21
test value: > 100 µM (inactive)
//
molecule: Cc1cc(C)c2[s+]snc2c1
test value: 95.7 µM (inactive)

Kindly consider the entry below.
Exam item: Specify reported GI50 for the molecule shown: Cc1ccc([N+](=O)[O-])cc1S(=O)(=O)Nc1ccc(C2=NNC(c3cccs3)C2)cc1 (stereo unspecified)
Marked response: 16.5 µM (inactive)

====

Test system: HOP-62
assay procedure: NCI tumour cell line growth inhibition, 48 h
The source made the active and inactive calls. Cut-off read from the data, not from the text of the source: active = GI50 up to about 1.1 µM and inactive = higher.
Examples of compounds with documented GI50 follow.

compound: COc1cccc(NC(=O)c2c(N)n[nH]c2SC)c1
subject of test: HOP-62
test value: > 100 µM (inactive)
//
compound: O=c1[nH]c(Nc2cccc(C(F)(F)F)c2)nc2[nH]cnc12
subject of test: HOP-62
test value: > 100 µM (inactive)
//
compound: NC(=O)N/N=C(/Cc1nc2ccc(C(=O)c3ccccc3)cc2nc1O)C(=O)Nc1ccc(C(F)(F)F)cc1[N+](=O)[O-]
subject of test: HOP-62
test value: > 100 µM (inactive)
//
compound: CCOC(=O)c1c(C)n(CCN2CCN(C)CC2)c2ccc(OC)cc12
subject of test: HOP-62
test value: 32.3 µM (inactive)
//
compound: O=C1c2ccccc2C(=O)c2c(NC(=O)C3CC3)ccc(NC(=O)C3CC3)c21
subject of test: HOP-62
test value: > 100 µM (inactive)
//
compound: C[C@]12CC[C@@H]3c4cc(OCC(F)(F)F)c(O)cc4CC[C@H]3[C@@H]1CC[C@@H]2O
subject of test: HOP-62
test value: 11.6 µM (inactive)
//
compound: COc1cccc(Nc2nc3c([nH]2)c(=O)n(C)c(=O)n3C)c1
subject of test: HOP-62
test value: > 10 µM (inactive)
//
compound: CC(C)(C)NC(NC(C)(C)C)=C(C(Cl)=C(Cl)Cl)[N+](=O)[O-]
subject of test: HOP-62
test value: > 100 µM (inactive)

Kindly consider the entry below.
Exam item: // output GI50; input `CO/C=C/C=C(\C#N)C(=O)OC` ; system HOP-62
Marked response: > 100 µM (inactive)

====

System: ACHN
assay procedure: NCI tumour cell line growth inhibition, 48 h
Calls of active or inactive are those of the source. Cut-off read from the data, not from the text of the source: active = GI50 up to about 1.1 µM and inactive = higher.
endpoint name: GI50

compound: N#Cc1cnc(N)nc1NCC1(CO)CC(CCc2ccccc2)C1 (stereo not given)
GI50: > 33.5 µM (inactive)
--
compound: COc1ccc(C(=O)C2=NON3OC23C(=O)c2ccc(OC)cc2)cc1 (stereo not given)
GI50: 17.5 µM (inactive)
--
compound: Cc1ccsc1C(=O)C(CC(=O)c1cccs1)c1ccsc1 (stereo not given)
GI50: > 100 µM (inactive)

Exam item: Specify reported GI50 for the compound shown: COc1ccc(OC)c(N2C(=O)/C(=C\c3ccccc3)SC2c2cc(OC)c(OC)c(OC)c2)c1 (stereo not given)
Marked response: 1.09 µM (active)

Exam item: Specify reported GI50 for the compound shown: `c1cncc(CNCc2cccnc2)c1`
Marked response: > 100 µM (inactive)

====

System: NCI-H226
assay procedure: NCI tumour cell line growth inhibition, 48 h
Activity calls are given as the source filed them. Rule as the data show it: active = GI50 up to about 1.1 µM and inactive = higher.
endpoint name: GI50

Below: 5 compounds and their reported GI50.
compound: Cc1ccc(N(C=O)c2c([N+](=O)[O-])cc([N+](=O)[O-])c3c2=[N+]([O-])CN=3)cc1
subject of test: NCI-H226
GI50: > 100 µM (inactive)
//
compound: COc1cc(C2=NNC(=O)c3ccccc3N2c2nc(-c3cccs3)nc3ccc(Br)cc23)cc(OC)c1OC
subject of test: NCI-H226
GI50: 36.1 µM (inactive)
//
compound: CC1=NC(C(=O)O)Cc2c1[nH]c1ccccc21 (stereo not given)
subject of test: NCI-H226
GI50: > 100 µM (inactive)
//
compound: CCOC(=O)c1nc2cc(C(F)(F)F)ccc2nc1Oc1ccc(F)cc1
subject of test: NCI-H226
GI50: > 100 µM (inactive)
//
compound: COc1ccc(/C(C)=C2\CCCN(Cc3ccccc3)C2)cc1
subject of test: NCI-H226
GI50: 21.5 µM (inactive)

Exam item: Specify reported GI50 for the compound shown: C[C@]12CCC(=O)C=C1CC[C@@H]1[C@@H]2[C@@H](O)C[C@@]2(C)[C@H]1CC[C@]2(O)C(=O)CO [HYDROCORTISONE]
Marked response: > 100 µM (inactive)

Exam item: Specify reported GI50 for the compound shown: CC(c1ccccc1)N1O[C@]12CC[C@@]1(C)C(CCCC13OCCO3)C2 (stereo not given in full)
Marked response: > 100 µM (inactive)

Exam item: Specify reported GI50 for the compound shown: `N#CC(=N)c1ncn(-c2ccc(N)cc2)c1N`
Marked response: > 100 µM (inactive)

Exam item: Specify reported GI50 for the compound shown: `S=c1sc2c(S)nc(S)nc2n1-c1ccccc1`
Marked response: > 100 µM (inactive)

Exam item: Specify reported GI50 for the compound shown: `c1cncc(CNCc2cccnc2)c1`
Marked response: > 100 µM (inactive)
